Test system: OVCAR-5
TEST_NAME: NCI tumour cell line growth inhibition, 48 h
Active and inactive are the calls of the source. Rule as the data show it: active = GI50 up to about 1.1 µM and inactive = higher.
PROPERTY: GI50

{"columns": ["COMPOUND", "TARGET_OF_ASSAY", "GI50"],
 "data": [
  ["C[C@]12CC[C@H]3[C@@H](CC=C4C[C@@H](N5CCCC5)CC[C@@]43C)[C@@H]1C[C@H](N1CCCCC1)[C@@H]2O", "OVCAR-5", "99.8 µM (inactive)"],
  ["C=C1c2nc3ccccc3n2C=C(c2ccccc2)N1c1ccc(C)cc1", "OVCAR-5", "> 100 µM (inactive)"],
  ["COc1cc2c(cc1OCCN1C(=O)c3cccc4cccc(c34)C1=O)N=C[C@@H]1CCCN1C2=O", "OVCAR-5", "10.9 µM (inactive)"],
  ["Cc1c(O)c(OC2OC(CO)C(O)C(O)C2O)cc2c1CC[C@@H]1C2(C)C(=O)C[C@]2(C)[C@@H]([C@@](C)(O)C(O)CCC(C)(C)O)[C@H](O)C[C@@]12C (stereo partly drawn)", "OVCAR-5", "> 100 µM (inactive)"],
  ["N#Cc1c(-c2ccc([N+](=O)[O-])cc2)cc(-c2ccc(Nc3ccnc4cc(Cl)ccc34)cc2)nc1N", "OVCAR-5", "30.8 µM (inactive)"],
  ["CC(=O)NS(=O)(=O)c1ccc(NCc2cccc3c(=O)c4ccc(Cl)cc4oc23)cc1", "OVCAR-5", "> 100 µM (inactive)"],
  ["NC(=O)CCC(NCc1c2ccccc2[n+]([O-])c2ccccc12)C(=O)O (stereo not drawn)", "OVCAR-5", "> 100 µM (inactive)"]
]}

Okay, next one:
Given `Cc1ccccc1C(=O)Oc1ccc(O)cc1` , state its recorded GI50.
> 100 µM (inactive)
